experiment: Enzymatic cleavage of prodrugs in vitro, human liver S9; type: in vitro ADME; settings: Human Liver S9 (0.5 mg/mL), substrate 2.0 μM, NADPH, 37° C.
Reported metric: % of Propofol Released from Propofol Prodrugs after 60 min. (%)
Return type: number; implicit unit %.

Please indicate % of Propofol Released from Propofol Prodrugs after 60 min. recorded for CSCC[C@H](N)C(=O)N[C@@H](CC(=O)Oc1c(C(C)C)cccc1C(C)C)C(=O)O
0

# return recorded % of Propofol Released from Propofol Prodrugs after 60 min. for input CC(C)c1cccc(C(C)C)c1OC(=O)CC[C@H](N)C(=O)N[C@@H](C)C(=O)O
0

In one line, give reported % of Propofol Released from Propofol Prodrugs after 60 min. of the entry CC(C)c1cccc(C(C)C)c1OC(=O)C[C@H](NC(=O)[C@@H](N)Cc1ccc(O)cc1)C(=O)O .
6

Write down % of Propofol Released from Propofol Prodrugs after 60 min. measured for item CC(C)c1cccc(C(C)C)c1OC(=O)OC[C@H](NC(=O)[C@H](C)N)C(=O)O
14

Entry CC(C)c1cccc(C(C)C)c1OC(=O)C[C@H](NC(=O)[C@H](C)N)C(=O)O needs its % of Propofol Released from Propofol Prodrugs after 60 min. filled in; supply it.
5

Supply reported % of Propofol Released from Propofol Prodrugs after 60 min. belonging to this compound: CC(C)c1cccc(C(C)C)c1OC(=O)CC[C@H](NC(=O)[C@@H](N)CC(N)=O)C(=O)O
0
